Origin of values: patent US10206394B2

- Test system: Alopecurus myosuroides (ALOMY)
- ASSAY_COMMENT: Glasshouse assay for herbicidal activity (pre- and post-emergence), percentage phytotoxicity
- Type: in vivo
- COND: Alopecurus myosuroides, pre-emergence, 480 h, Rate 250 g/ha; pre-emergence; assessed visually 20 DAA; 100%=total damage, 0%=no damage; read-out: Pre-emergence herbicidal activity (percentage phytotoxicity) ALOMY PRE
# Lookup of reported pest or weed control at 250 g/ha keyed by entry
A number alone suffices; assume %.

Please review the entries below; each comes with its answer.
COMPOUND | pest or weed control at 250 g/ha (%)
C#CCNC(=O)CC1CC(=O)C(c2c(C)cc(-c3ncc(Cl)cc3F)cc2C)C1=O (stereo not shown) [Compound A69] | 100
Cc1cc(-c2ncc(Cl)cc2F)cc(C)c1C1C(=O)CC(CC(=O)NCc2ncc(C(F)(F)F)cc2Cl)C1=O (stereo not shown) [Compound A113] | 80
CC#Cc1cc(C)c(C2C(=O)CC(CC(=O)NC(C)CC)C2=O)c(C)c1 (stereo not shown) [Compound A33] | 100

Form field: reported pest or weed control at 250 g/ha of C#CC(C)(C)NC(=O)CC1CC(=O)C(c2c(C)cc(C)cc2C)C1=O (stereo not shown) [Compound A11]
70

Moving on to the next compound: Cc1cccc(CNC(=O)CC2CC(=O)C(c3c(C)cc(-c4ncc(Cl)cc4F)cc3C)C2=O)c1 (stereo not shown) [Compound A119]
40

Moving on to the next compound: Cc1cc(C)c(C2C(=O)CC(C(C)C(=O)NC(C)(C)C)C2=O)c(C)c1 (stereo not shown) [Compound A164]
70

Moving on to the next compound: Cc1cc(-c2ncc(Cl)cc2Cl)cc(C)c1C1C(=O)CC(CC(=O)NCc2cccc(Cl)c2)C1=O (stereo not shown) [Compound A135]
20

Moving on to the next compound: Cc1cc(C)c(C2C(=O)CC(CC(=O)NCc3ncc(C(F)(F)F)cc3Cl)C2=O)c(C)c1 (stereo not shown) [Compound A109]
90

Moving on to the next compound: Cc1cc(-n2cc(Cl)cn2)cc(C)c1C1C(=O)CC(CC(=O)NC2CCCC2)C1=O (stereo not shown) [Compound A70]
70

Moving on to the next compound: Cc1cc(-c2ncc(Cl)cc2F)cc(C)c1C1C(=O)CC(CC(=O)NCc2ccc(C(F)(F)F)nc2)C1=O (stereo not shown) [Compound A115]
90

Moving on to the next compound: Cc1cc(-c2cc(Cl)ccn2)cc(C)c1C1C(=O)CC(CC(=O)NCc2cccc(C(F)(F)F)c2)C1=O (stereo not shown) [Compound A154]
50

Moving on to the next compound: CC#Cc1cc(C)c(C2C(=O)CC(CC(=O)NC(C)(C)C)C2=O)c(CC)c1 (stereo not shown) [Compound A48]
100

Moving on to the next compound: Cc1cc(C)c(C2C(=O)CC(CC(=O)NCc3cccc(Cl)c3)C2=O)c(C)c1 (stereo not shown) [Compound A96]
100

Moving on to the next compound: CC#Cc1cc(C)c(C2C(=O)CC(CC(=O)NC(C)(C)CC)C2=O)c(CC)c1 (stereo not shown) [Compound A50]
100

Moving on to the next compound: CC#Cc1cc(C)c(C2C(=O)CC(CC(=O)N(C)CCC)C2=O)c(CC)c1 (stereo not shown) [Compound A79]
100

Moving on to the next compound: CC#Cc1cc(C)c(C2C(=O)CC(CC(=O)NCCC(F)(F)F)C2=O)c(C)c1 (stereo not shown) [Compound A58]
100

Moving on to the next compound: Cc1cc(C)c(C2C(=O)CC(CC(=O)NC3(c4ccccn4)CC3)C2=O)c(C)c1 (stereo not shown) [Compound A18]
60

Moving on to the next compound: C#Cc1cc(C)c(C2C(=O)CC(CC(=O)NC(C)CC)C2=O)c(C)c1 (stereo not shown) [Compound A9]
90

Moving on to the next compound: Cc1cc(C)c(C2C(=O)CC(C(C)C(=O)NCc3ncccc3Cl)C2=O)c(C)c1 (stereo not shown) [Compound A167]
20

Moving on to the next compound: COCCNC(=O)CC1CC(=O)C(c2c(C)cc(-n3cc(Cl)cn3)cc2C)C1=O (stereo not shown) [Compound A77]
80

Moving on to the next compound: Cc1cc(-c2ncc(Cl)cc2F)cc(C)c1C1C(=O)CC(CC(=O)NCc2cnc(Cl)s2)C1=O (stereo not shown) [Compound A128]
80

Moving on to the next compound: Cc1cc(C)c(C2C(=O)CC(CC(=O)NC3CCOCC3)C2=O)c(C)c1 (stereo not shown) [Compound A17]
70

Moving on to the next compound: Cc1cc(-c2ccc(F)cc2)cc(C)c1C1C(=O)CC(CC(=O)NC(C)C)C1=O (stereo not shown) [Compound A34]
100

Moving on to the next compound: Cc1cc(-c2ccc(C#N)cn2)cc(C)c1C1C(=O)CC(CC(=O)NCc2cccs2)C1=O (stereo not shown) [Compound A156]
60

Moving on to the next compound: Cc1cc(-c2ncc(F)cn2)cc(C)c1C1C(=O)CC(CC(=O)NCc2ccc(C(F)(F)F)nc2)C1=O (stereo not shown) [Compound A136]
80
